- Test system: HEK293 cells
- test method notes: MTT cell viability assay, noncancerous HEK293 cells, 5 days treatment
- Format: cell-based, human
- condition label: 5 days treatment, 100–0 µM
pIC50: −log10 of the molar value.

| molecule | test target | pIC50 |
| --- | --- | --- |
| O=c1cc(-c2cc(C(F)(F)F)cc(C(F)(F)F)c2)[nH]c2cc(-c3ccc(Cl)cc3)nn12 [Compound 8] | HEK293 cells | 4.28 |
| O=c1cc(-c2cc(C(F)(F)F)cc(C(F)(F)F)c2)[nH]c2cc(-c3ccc(Br)cc3)nn12 [Compound 7] | HEK293 cells | 4.22 |
| COc1ccc(-c2cc3[nH]c(-c4cc(C(F)(F)F)cc(C(F)(F)F)c4)cc(=O)n3n2)cc1 [Compound 11] | HEK293 cells | 4.53 |
| O=c1cc(-c2cc(C(F)(F)F)cc(C(F)(F)F)c2)[nH]c2cc(-c3ccc([N+](=O)[O-])cc3)nn12 [Compound 10] | HEK293 cells | 4.13 |
| O=c1cc(-c2cc(C(F)(F)F)cc(C(F)(F)F)c2)[nH]c2cc(-c3cccc(Cl)c3)nn12 [Compound 12] | HEK293 cells | 4.53 |
| O=c1cc(-c2cc(C(F)(F)F)cc(C(F)(F)F)c2)[nH]c2cc(-c3ccc(C(F)(F)F)cc3)nn12 [Compound 9] | HEK293 cells | 4.26 |

* * *

Measured IC50 accompanies every entry in the list below.
- System: U‐251 MG cells
- test method notes: MTT cell viability assay, U‐251 MG glioblastoma cells, 5 days treatment
- Type: cell-based, human
- condition label: Homo sapiens, U-251, 120 h, 5 days treatment, 100–0 µM

| compound structure | IC50 |
| --- | --- |
| O=c1cc(-c2cc(C(F)(F)F)cc(C(F)(F)F)c2)[nH]c2cc(-c3ccc(Br)cc3)nn12 | < 50 µM |
| Cc1cc(=O)n2nc(-c3ccccc3)cc2[nH]1 | 81.5 µM |
| CC(C)c1cc2[nH]c(C(C)C)cc(=O)n2n1 | 170 µM |
| CCc1cc(=O)n2nc(C(C)C)cc2[nH]1 | 154 µM |
| O=c1cc(-c2cc(C(F)(F)F)cc(C(F)(F)F)c2)[nH]c2cc(-c3ccc(C(F)(F)F)cc3)nn12 | 26.8 µM |
| O=c1cc(-c2cc(C(F)(F)F)cc(C(F)(F)F)c2)[nH]c2cc(-c3cccc(Cl)c3)nn12 | 21.7 µM |
| O=c1cc(-c2ccccc2)[nH]c2cc(-c3ccccc3)nn12 | 19.9 µM |
| O=c1cc(-c2cc(C(F)(F)F)cc(C(F)(F)F)c2)[nH]c2cc(-c3cccc([N+](=O)[O-])c3)nn12 | 29.6 µM |
| O=c1cc(-c2cc(C(F)(F)F)cc(C(F)(F)F)c2)[nH]c2cc(-c3ccc(Cl)cc3)nn12 | < 30 µM |
| CC(C)c1cc2[nH]c(-c3cc(C(F)(F)F)cc(C(F)(F)F)c3)cc(=O)n2n1 | < 20 µM |
| O=c1cc(-c2cc(C(F)(F)F)cc(C(F)(F)F)c2)[nH]c2cc(-c3cccc(C(F)(F)F)c3)nn12 | 31 µM |
| O=c1cc(-c2cc(C(F)(F)F)cc(C(F)(F)F)c2)[nH]c2cc(-c3ccccc3Br)nn12 | 2.79 µM |
| O=c1cc(-c2cc(C(F)(F)F)cc(C(F)(F)F)c2)[nH]c2cc(-c3cccc(Br)c3)nn12 | 0.714 µM |
| O=c1cc(-c2cc(C(F)(F)F)cc(C(F)(F)F)c2)[nH]c2cc(-c3ccc(F)cc3)nn12 | 52.2 µM |
| CC(C)c1cc2[nH]c(-c3ccccc3)cc(=O)n2n1 | < 20 µM |
| COc1ccc(-c2cc3[nH]c(-c4cc(C(F)(F)F)cc(C(F)(F)F)c4)cc(=O)n3n2)cc1 | 23.5 µM |
| CC(C)(C)c1cc2[nH]c(-c3ccccc3)cc(=O)n2n1 | 76.6 µM |
